Listed below: % Compound Remaining Mean values for each entry.
Experiment: In-vitro metabolism of LDAA compounds using liver microsomes
Assay type: in vitro ADME, human
Details: incubation time 15 minutes; 1.0E−07M
Method: The stability of test compounds in pooled human liver microsomes was determined on 96-well plates, wherein the test compounds were quantified at five time points by HPLC-MS/MS analysis. […] In each assay the four reference compounds propranolol, imipramine, verapamil and terfenadine were tested, wherein the propranolol and the imipramine are known to be relatively stable, while the verapamil and the terfenadine are known to be readily metabolized in human liver microsomes. […]
Counter-ions that a name gives are not always drawn. Non-standard residues stand in square brackets, D forms with d. Residues, ends and D or L forms follow the SMILES beside them. Dopa = N[C@@H](Cc1ccc(O)c(O)c1)C(=O)O
Number in %, nothing else.

Previously resolved entries follow.
1) N=C(N)NCCC[C@H](NC(=O)[C@@H](N)Cc1ccc(O)c(O)c1)C(=O)O [LD-Arg TFA salt, Levodopa Arginine TFA Salt] :: 111
2) NC(=O)C[C@H](NC(=O)[C@@H](N)Cc1ccc(O)c(O)c1)C(=O)O [LD-Asn TFA salt, Levodopa Asparagine TFA Salt] (H-[Dopa]-Asn-OH) :: 95

Let's switch to this compound now.
Task item: Please look up its % Compound Remaining Mean: NCCCC[C@H](NC(=O)[C@@H](N)Cc1ccc(O)c(O)c1)C(=O)O [LD-Lys TFA salt, Levodopa Lysine TFA Salt] (H-[Dopa]-Lys-OH)
Reply: 97

---

Experiment: In-vitro metabolism of LDAA compounds using liver microsomes
Assay type: in vitro ADME, human
Conditions: incubation time 60 minutes; 1.0E−07M
Where a name gives a salt, the structure may show the parent alone. Non-standard residues stand in square brackets, D forms with d. Residues, ends and D or L forms follow the SMILES beside them. Dopa = N[C@@H](Cc1ccc(O)c(O)c1)C(=O)O
property name: % Compound Remaining Mean (%)
Quick note: give the figure in %, leave out the unit.

Example cases with answers are listed next.
1) N[C@@H](Cc1ccc(O)c(O)c1)C(=O)NCC(=O)O [LD-Gly TFA salt, Levodopa Glycine TFA Salt] :: 52
2) NCCCC[C@H](NC(=O)[C@@H](N)Cc1ccc(O)c(O)c1)C(=O)O [LD-Lys TFA salt, Levodopa Lysine TFA Salt] (H-[Dopa]-Lys-OH) :: 55
3) N[C@@H](CSC[C@@H](NC(=O)[C@@H](N)Cc1ccc(O)c(O)c1)C(=O)O)C(=O)O (single isomer, unassigned; peak 1) [LD-LA1 TFA salt, Levodopa Lanthionine Peak 1 TFA Salt] :: 70
4) NC(=O)C[C@H](NC(=O)[C@@H](N)Cc1ccc(O)c(O)c1)C(=O)O [LD-Asn TFA salt, Levodopa Asparagine TFA Salt] (H-[Dopa]-Asn-OH) :: 62
5) N[C@@H](CSC[C@H](NC(=O)[C@@H](N)Cc1ccc(O)c(O)c1)C(=O)O)C(=O)O (single isomer, unassigned; peak 2) [LD-LA2 TFA salt, Levodopa Lanthionine Peak 2 TFA Salt] :: 60

Task item: For NC(=O)CC[C@H](NC(=O)[C@@H](N)Cc1ccc(O)c(O)c1)C(=O)O [LD-Gln TFA salt, Levodopa Glutamine TFA Salt] (H-[Dopa]-Gln-OH) , what is its reported % Compound Remaining Mean?
Reply: 77

Task item: Another compound: N[C@@H](Cc1ccc(O)c(O)c1)C(=O)O [LD (control), L-3,4-dihydroxyphenylalanine, reference compound]
Reply: 74

These data points were gathered from patent US20220362386A1.
